Values from patent US6410585B1

Target: human PTP1B (Homo sapiens)
Construct: human PTP1B (amino acid residues 1-321); made in house; host or cells: E. coli BL21(DE3)
Sequence (P18031 1-321): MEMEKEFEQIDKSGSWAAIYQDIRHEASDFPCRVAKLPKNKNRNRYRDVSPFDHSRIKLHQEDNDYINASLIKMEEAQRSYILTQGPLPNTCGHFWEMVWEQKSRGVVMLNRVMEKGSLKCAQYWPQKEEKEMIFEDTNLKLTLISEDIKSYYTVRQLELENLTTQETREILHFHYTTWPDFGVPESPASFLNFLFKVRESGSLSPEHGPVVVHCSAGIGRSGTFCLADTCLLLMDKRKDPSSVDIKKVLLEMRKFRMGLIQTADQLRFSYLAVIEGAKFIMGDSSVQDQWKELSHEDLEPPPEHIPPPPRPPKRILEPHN
Assay: PTP1B assay, pNPP hydrolysis, assayed exactly as for PTP1
Assay type: biochemical
Details: Conc 1 uM, Table 2, read-out: PTP1B Inhib PTP1B. % Inhib
OBSERVABLE: inhibition at 1 µM (%)
Give just the numeric value; % need not be written.

CCCCCNC(=O)C(Cc1ccc(OC(COO)COO)cc1)NC(=O)C(CC[S+](C)[O-])NC(=O)OC(C)(C)C (stereo not shown): 7
CCCCCNC(=O)C(Cc1ccc(OCCOO)c(COO)c1)NC(=O)C(C)NC(=O)OC(C)(C)C (stereo not shown): 8

-- ask Record request: inhibition at 1 µM value, item CCCCCNC(=O)C(Cc1ccc(OCCOO)c(COO)c1)NC(=O)C(Cc1ccccc1)NC(=O)CCNC(=O)OC(C)(C)C (stereo not shown)
-- reply 19

-- ask Record request: inhibition at 1 µM value, item CC(C)(C)OC(=O)N[C@@H](Cc1ccccc1)C(=O)N[C@H](CO)Cc1ccc(OCC(=O)O)c(C(=O)O)c1 [drawing 222]
-- reply 5

-- ask Record request: inhibition at 1 µM value, item CCCCCNC(=O)C(Cc1ccc(OC(COO)COO)cc1)NC(=O)C(Cc1ccc(C(=O)c2ccccc2)cc1)NC(=O)OC(C)(C)C (stereo not shown)
-- reply 9

-- ask Record request: inhibition at 1 µM value, item CCCCCNC(=O)[C@H](Cc1ccc(OCC(=O)O)c(C(=O)NO)c1)NC(=O)[C@H](Cc1ccccc1)NC(=O)OC(C)(C)C
-- reply 5

-- ask Record request: inhibition at 1 µM value, item CCCCCNC(=O)C(Cc1ccc(OCCOO)c(COO)c1)NC(=O)C(Cc1ccccc1)NC(=O)Cc1ccccc1 (stereo not shown)
-- reply 45
